assay: probe aNOTCH2 binding on compound microarray – biochemical, small-molecule microarray, 635/667 nm fluorescence, primary screen (AID 1121); details: higher = more signal;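 further: score merges feature fluorescence read at 667 nm with its signal to noise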
// label = 1 (yes) if composite z-score is not less than -0.1, otherwise 0 (no)

Here are 4 compounds together with their reported answers.
INSERT INTO results (compound, category_label) VALUES
  ('NC(=O)NCC#Cc1ccc2c(c1)[C@]1(C(=O)N2)[C@H](c2ccc(O)cc2)N2[C@H](c3ccccc3)[C@H](c3ccccc3)OC(=O)[C@H]2[C@@H]1C(=O)NC[C@H](O)c1ccccc1', '0 (no)'),
  ('O=C1OCCC=C[C@H]2OC34C=CCN(Cn5nnc6ccccc65)C(=O)[C@H]3N(CCCCCO)C(=O)[C@@H]4C12 (stereo partly specified)', '0 (no)'),
  ('O=C1OCC=C[C@H]2OC34C=CCN(CCN5CCOCC5)C(=O)[C@H]3N(CCCCCO)C(=O)[C@@H]4[C@@H]12 (stereo partly specified)', '0 (no)'),
  ('COCCOC(=O)N1C(=O)[C@@]2(c3cc(C#CC4(O)CCCCCC4)ccc31)[C@H](C(=O)N1CCN(c3ncccn3)CC1)[C@H]1C(=O)O[C@H](c3ccccc3)[C@H](c3ccccc3)N1[C@@H]2c1ccc(O)cc1', '1 (yes)');

For the next question, use this compound.
### Prompt Evaluate Cc1ccc(S[C@]2(C(=O)NCc3ccccc3)CC(=O)N(C3Cc4ccccc4C3)[C@@H]2c2ccc(CO)cc2I)cc1 : composite z-score at minimum -0.1?
### Response 1 (yes)

----------
test: JC-1 mitochondrial signal, unstimulated MM1S myeloma – cell-based, JC-1 fluorescence, 24 h, 100 nL compound, profiling panel (AID 1170); details: MM1S mitochondrial potential, higher = more signal; further: test concentration not given here
experimental.readout: z-score
Give a plain numeric answer without units written out.

INSERT INTO measurements (molecule, value_measured) VALUES
  ('COC(=O)[C@@]1(Cc2ccccc2)[C@H]2c3cc(C(=O)N(C)C)n(Cc4ccccn4)c3C[C@H]2CN1C(=O)c1ccccc1', -0.135),
  ('COCC(=C=CC[C@@H](O)c1ccccc1OCCO)C[C@@H](O)c1ccccn1', -0.952),
  ('CCCCC=C[C@@H](NC(=O)CCc1ccccc1)c1ccccc1', -1.74),
  ('OCc1ccc(-c2cc[n+](Cc3cccc(OC(F)(F)F)c3)cc2)cc1', -0.704);

### Prompt Determine from records and report z-score for COC(=O)c1ccc(OC)c(/C=C\CC(CCc2ccccc2)OC(=O)c2ccncc2)c1 (stereo not drawn)
### Response 0.256

### Prompt Determine from records and report z-score for COC(=O)[C@@]1(Cc2ccc(OC)cc2)[C@H]2c3cc(C(=O)N(C)C)n(Cc4cc(F)c(F)c(F)c4)c3C[C@H]2CN1C(=O)c1ccccc1
### Response -0.971

### Prompt Determine from records and report z-score for C=CCOC(=O)[C@@H]1[C@H]2C(=O)O[C@H](c3ccccc3)[C@H](c3ccccc3)N2[C@H](c2ccc(OCCOC(=O)[C@@H]3C[C@@H]4C(=O)N[C@@H](CCCCNC(C)=O)C(=O)N4[C@@H]3c3ccc(O)cc3)cc2)[C@@]12C(=O)Nc1ccc(I)cc12
### Response -1.14

### Prompt Determine from records and report z-score for CCN(CC)c1ccc(N2CC=CC34O[C@@H]5/C=C\CCCOC(=O)C5[C@H]3C(=O)N(CCCCCO)[C@@H]4C2=O)cc1 (stereo partly drawn)
### Response 0.515

### Prompt Determine from records and report z-score for CCC[C@@H]1C[C@@]1(CCC)[C@@H](NC(=O)c1cccs1)c1ccc(Cl)cc1
### Response -0.386

### Prompt Determine from records and report z-score for COc1ccccc1CN1C(=O)c2ccccc2[C@@]2(Cc3ccccc3N(C3CC3)C2=O)[C@@H]1c1ccc(CO)cc1
### Response 0.361

### Prompt Determine from records and report z-score for CC(C)(C)OC(=O)CC[C@]1(C(=O)N2CCCCC2)N=C(c2ccc(OCCCO)cc2)O[C@H]1c1ccccc1CN=[N+]=[N-]
### Response 0.358

### Prompt Determine from records and report z-score for CC(C)CCC[C@@H](C)[C@H]1CC[C@@]2(C)C3=C(CC[C@]12C)[C@@]1(C)CC[C@H](OC(=O)c2ccc(N)cc2)C(C)(C)C1CC3 (stereo partly drawn)
### Response -0.0494

### Prompt Determine from records and report z-score for CN(C)CCCCCCNC(=O)[C@@H]1C[C@@H]2C(=O)NCC(=O)N2[C@@H]1c1ccc(O)cc1
### Response 0.216

### Prompt Determine from records and report z-score for COCCCNC(=O)[C@]1(Cc2ccccc2)N=C(c2ccc(OCCCO)cc2)O[C@@H]1c1ccccc1N=[N+]=[N-]
### Response -1.73

### Prompt Determine from records and report z-score for CCCC[C@@H](O)C1=C(COc2ccccc2)Cn2c(=O)n(-c3ccccc3)c(=O)n2[C@H]1CO
### Response 0.277

### Prompt Determine from records and report z-score for C=CCNC(=O)[C@@H]1[C@H]2C(=O)O[C@H](c3ccccc3)[C@H](c3ccccc3)N2[C@H](c2ccc(O)cc2)[C@@]12C(=O)Nc1ccc(C#CCCO)cc12
### Response -0.388

### Prompt Determine from records and report z-score for CCCCC(O)C1C=CC2C(=O)N(Cc3ccccc3)C(=O)C2N1n1cnnc1 (stereo not drawn)
### Response -1.26
